B1: library; a variant is named by its letters at N, in order (parent)
chain: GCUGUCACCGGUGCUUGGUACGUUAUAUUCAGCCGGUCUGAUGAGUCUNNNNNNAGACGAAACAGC

Variants of: B1
Assay: normalized RNA/DNA level without ligand (relative to sTRSVctl = 100) (log10 (% of sTRSVctl)); HEK293T overexpressing SLC46A1; higher = less ribozyme self-cleavage, higher mRNA level
Conditions: without (6R,S)-folinic acid; ligand present: no
MEASURED_ATTRIBUTE: normalized RNA/DNA level without ligand (log10)
// return just the number, without any unit appended

Query (variant): `GAAACC` ; field requested: normalized RNA/DNA level without ligand (log10)
2.03

Also need `GAUUGA` , thanks.
2

Also need `AUCAUU` , thanks.
2.05

Also need `CCAGCG` , thanks.
1.97

Also need `GUCGUA` , thanks.
2.02

Also need `AGAGCC` , thanks.
2.05

Also need `CUCCCU` , thanks.
2.04

Also need `ACUCCC` , thanks.
2.05

Also need `GCGGGA` , thanks.
2.04

Also need `ACGGCG` , thanks.
2.01

Also need `AGCACU` , thanks.
2.02

Also need `UCCUUA` , thanks.
2.02

Also need `GUUCGA` , thanks.
2.02

Also need `CGCUGU` , thanks.
2.03

Also need `GUGCUA` , thanks.
1.99

Also need `UCUACC` , thanks.
2.05
